Biological target: human μ opiate receptor (Homo sapiens)
Construct: purchased PerkinElmer Life Sciences, Zaventem, Belgium RB-HOM; host or cells: CHO-K1 cells (membrane preparation)
Sequence (P35372 whole entry): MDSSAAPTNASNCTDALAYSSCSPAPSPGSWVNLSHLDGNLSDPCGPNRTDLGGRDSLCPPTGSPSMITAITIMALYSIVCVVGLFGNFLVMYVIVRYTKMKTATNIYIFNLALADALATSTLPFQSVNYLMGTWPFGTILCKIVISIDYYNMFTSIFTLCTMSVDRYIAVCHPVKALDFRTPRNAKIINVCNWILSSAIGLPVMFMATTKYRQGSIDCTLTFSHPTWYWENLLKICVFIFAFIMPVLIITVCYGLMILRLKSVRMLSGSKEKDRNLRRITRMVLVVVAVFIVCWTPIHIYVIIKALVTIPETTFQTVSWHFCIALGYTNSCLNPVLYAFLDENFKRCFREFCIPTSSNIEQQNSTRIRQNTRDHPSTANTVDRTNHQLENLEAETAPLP
Test: Affinity for the human μ opiate receptor ([3H]-naloxone displacement, CHO-K1 receptor membrane preparation, SPA)
Format: binding
Settings: test concentration of 1 μM
Measure name: μ (binding on the μ opioid receptor, % inhibition) (%)
Answers are plain numbers, in %.

Worked examples, 6 compounds total:
| Compound | Reported value |
| --- | --- |
| COc1ccc(S(=O)(=O)N2CCCCC2COCC(=O)NCCC2CCC(C(c3ccc(Cl)cc3)N(C)C)CC2)c(OC)c1 (centres unmarked) | 46 |
| CN(C)C(c1ccc(F)cc1)C1CCC(NC(=O)COCCN(C)S(=O)(=O)c2cccc(C(F)(F)F)c2)CC1 (centres unmarked) | 51 |
| CN(C)C(c1cccc(F)c1)C1CCC(NC(=O)COCCN(C)S(=O)(=O)c2ccc(OC(F)(F)F)cc2)CC1 (centres unmarked) | 76 |
| COc1ccc(S(=O)(=O)N2CCCCC2CCOCC(=O)NCC2CCC(C(c3cccc(F)c3)N(C)C)CC2)cc1 (centres unmarked) | 83 |
| COc1ccc(S(=O)(=O)N2CCCC2COCC(=O)NC2CCC(C(c3cccc(F)c3)N(C)C)CC2)cc1 (centres unmarked) | 70 |
| CN(C)C(c1ccc(F)cc1)C1CCC(CCNC(=O)COCCC2CCN(S(=O)(=O)c3ccccc3)CC2)CC1 (centres unmarked) | 35 |

Items follow; give μ (binding on the μ opioid receptor, % inhibition) for each.
1. COc1ccc(S(=O)(=O)N2Cc3ccccc3CC2COCC(=O)NCC2CCC(C(c3ccc(F)cc3)N(C)C)CC2)cc1 (centres unmarked)
2. Cc1cc(C)c(S(=O)(=O)N2CCC(OCC(=O)NCCC3CCC(C(c4ccc(F)cc4)N(C)C)CC3)C2)c(C)c1 (centres unmarked)
3. Cc1ccc(S(=O)(=O)N2CCC(OCC(=O)NCC3CCC(C(c4ccc(Cl)cc4)N(C)C)CC3)C2)cc1 (centres unmarked)

65
45
64

Fill in μ (binding on the μ opioid receptor, % inhibition) for each of the 4 compounds listed.
1. COc1cc(C)c(S(=O)(=O)N2CCC(OCC(=O)NCC3CCC(C(c4cccc(F)c4)N(C)C)CC3)C2)c(C)c1 (centres unmarked)
2. COc1cc(C)c(S(=O)(=O)N(CCOCC(=O)NCCC2CCC(C(c3ccc(F)cc3)N(C)C)CC2)Cc2ccccc2)c(C)c1 (centres unmarked)
3. COc1ccc(S(=O)(=O)N2CCCCC2COCC(=O)NCC2CCC(C(c3ccc(Cl)cc3)N(C)C)CC2)cc1OC (centres unmarked)
4. Cc1ccc(S(=O)(=O)N(C)CCOCC(=O)NC2CCC(C(c3cccc(F)c3)N(C)C)CC2)cc1 (centres unmarked)

1. 79
2. 30
3. 60
4. 74

Kindly state the measured μ (binding on the μ opioid receptor, % inhibition) obtained for CN(C)C(c1ccc(F)cc1)C1CCC(CNC(=O)COCCN(C)S(=O)(=O)c2c(Cl)cccc2Cl)CC1 (centres unmarked) with human μ opiate receptor (Homo sapiens).
66

----------
Target: serotonin (5-HT) reuptake (Rattus norvegicus)
Construct: synaptosomes are freshly isolated from areas of the rat brain; from tissue; host or cells: rat brain synaptosomes (P2 fraction)
Experiment: Inhibition of serotonin (5HT) reuptake in synaptosomes from rat brain
Type: biochemical
Conditions: test concentration of 10 μM; 10 µM
Measure name: 5-HT (inhibition of reuptake of serotonin, % inhibition) (%)
Answers are plain numbers, in %.

For each entry beneath this line, provide reported 5-HT (inhibition of reuptake of serotonin, % inhibition).
1. CN(C)C(CCc1ccccc1)C1CCC(CNC(=O)COCCN(C)S(=O)(=O)c2c(Cl)cccc2Cl)CC1 (stereo not shown) [Example 580]
2. CC(Oc1ccccc1)C(=O)NC1CCC(C(CCc2ccccc2)N(C)C)CC1 (stereo not shown) [Example 545]
3. CC(Oc1ccccc1)C(=O)NC1CCC(C(CCc2ccccc2)N(C)C)CC1 (stereo not shown) [Example 577]

1: 77; 2: 52; 3: 16

Please tell me: 5-HT (inhibition of reuptake of serotonin, % inhibition) of CC(Oc1ccccc1)C(=O)NCC1CCC(C(c2cccc(F)c2)N(C)C)CC1 (stereo not shown) [Example 79] , system serotonin (5-HT) reuptake (Rattus norvegicus)?
64

----------
Biological target: serotonin (5-HT) reuptake (Rattus norvegicus, UniProt P31652)
Construct: synaptosomes are freshly isolated from areas of the rat brain; from tissue; host or cells: rat brain synaptosomes (P2 fraction)
Sequence (P31652 whole entry): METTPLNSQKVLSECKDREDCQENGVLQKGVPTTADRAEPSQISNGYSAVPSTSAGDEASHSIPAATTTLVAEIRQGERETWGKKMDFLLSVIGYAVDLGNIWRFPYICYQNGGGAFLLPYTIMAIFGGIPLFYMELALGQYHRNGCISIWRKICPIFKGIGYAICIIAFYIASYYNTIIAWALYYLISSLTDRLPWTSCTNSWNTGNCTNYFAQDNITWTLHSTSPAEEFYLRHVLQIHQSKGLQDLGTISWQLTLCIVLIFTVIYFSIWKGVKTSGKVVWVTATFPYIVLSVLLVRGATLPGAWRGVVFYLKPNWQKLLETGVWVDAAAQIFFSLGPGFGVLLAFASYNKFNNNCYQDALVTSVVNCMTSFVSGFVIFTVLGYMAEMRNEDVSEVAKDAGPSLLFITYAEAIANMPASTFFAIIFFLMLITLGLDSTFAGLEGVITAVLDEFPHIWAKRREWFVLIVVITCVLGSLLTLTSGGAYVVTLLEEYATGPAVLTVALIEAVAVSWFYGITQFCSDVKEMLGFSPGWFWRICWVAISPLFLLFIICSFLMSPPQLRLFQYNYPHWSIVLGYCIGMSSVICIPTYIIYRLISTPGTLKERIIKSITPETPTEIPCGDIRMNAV
Experiment: Inhibition of serotonin (5HT) reuptake in synaptosomes from rat brain
Assay type: biochemical
Conditions: test concentration of 10 μM
Measure name: 5-HT (inhibition of reuptake of serotonin, % inhibition) (%)
Answers are plain numbers, in %.

Example compounds with recorded 5-HT (inhibition of reuptake of serotonin, % inhibition):
| Compound | Unit string | Reported value |
| --- | --- | --- |
| COc1cc(C)c(S(=O)(=O)N2CCCC(OCC(=O)NCC3CCC(C(CCc4ccccc4)N(C)C)CC3)C2)c(C)c1C (stereo not shown) | % | 85 |
| CN(C)C(c1cccc(F)c1)C1CCC(NC(=O)COC2CCN(S(=O)(=O)c3ccccc3)CC2)CC1 (stereo not shown) | % | 93 |
| COc1cc(C)c(S(=O)(=O)N2CCCC(OCC(=O)NCCC3CCC(C(c4ccc(F)cc4)N(C)C)CC3)C2)c(C)c1C (stereo not shown) | % | 95 |

Provide 5-HT (inhibition of reuptake of serotonin, % inhibition) for all items below, preserving their order.
1. CN(C)C(c1ccc(F)cc1)C1CCC(CNC(=O)COCCN2CCN(S(=O)(=O)c3ccccc3)CC2)CC1 (stereo not shown)
2. CN(C)C(c1ccc(F)cc1)C1CCC(CNC(=O)COC2CCN(S(=O)(=O)c3ccc(Cl)cc3)C2)CC1 (stereo not shown)
3. Cc1ccc(S(=O)(=O)N2CCC(OCC(=O)NCCC3CCC(C(c4ccc(Cl)cc4)N(C)C)CC3)C2)cc1 (stereo not shown)
4. Cc1ccc(S(=O)(=O)N(C)CCOCC(=O)NCCC2CCC(C(c3ccc(Cl)cc3)N(C)C)CC2)cc1 (stereo not shown)
5. COc1ccc(S(=O)(=O)N2CCCC2COCC(=O)NCCC2CCC(C(c3ccc(F)cc3)N(C)C)CC2)cc1 (stereo not shown)
6. COc1cc(C)c(S(=O)(=O)N(C)CCOCC(=O)NCC2CCC(C(c3ccc(Cl)cc3)N(C)C)CC2)c(C)c1C (stereo not shown)
7. COc1cc(C)c(S(=O)(=O)N2CCC(CCOCC(=O)NCCC3CCC(C(c4ccc(Cl)cc4)N(C)C)CC3)CC2)c(C)c1C (stereo not shown)
8. COc1cc(C)c(S(=O)(=O)N(C)CCOCC(=O)NCCC2CCC(C(c3ccc(Cl)cc3)N(C)C)CC2)c(C)c1 (stereo not shown)

95
86
88
91
97
79
79
83

Need 5-HT (inhibition of reuptake of serotonin, % inhibition) for each of these compounds.
1. COc1cc(C)c(S(=O)(=O)N2CCC(OCC(=O)NCC3CCC(C(c4ccc(Cl)cc4)N(C)C)CC3)CC2)c(C)c1C (stereo not shown)
2. COc1cc(C)c(S(=O)(=O)N2CCC(OCC(=O)NCC3CCC(C(c4cccc(F)c4)N(C)C)CC3)C2)c(C)c1C (stereo not shown)
3. COc1ccc(S(=O)(=O)N2CCCC2COCC(=O)NCCC2CCC(C(c3cccc(F)c3)N(C)C)CC2)cc1 (stereo not shown)
4. CN(C)C(c1cccs1)C1CCC(NC(=O)COCCN2CCN(S(=O)(=O)c3ccccc3)CC2)CC1 (stereo not shown)
5. CN(C)C(c1ccc(F)cc1)C1CCC(NC(=O)COC2CCN(S(=O)(=O)c3ccc(Cl)cc3)C2)CC1 (stereo not shown)
6. COc1cc(C)c(S(=O)(=O)N(CCOCC(=O)NCCC2CCC(C(c3ccc(Cl)cc3)N(C)C)CC2)Cc2ccccc2)c(C)c1C (stereo not shown)
7. CN(C)C(c1cccc(F)c1)C1CCC(NC(=O)COC2CCN(S(=O)(=O)c3ccccc3)C2)CC1 (stereo not shown)
8. COc1ccc(S(=O)(=O)N(C)CCOCC(=O)NC2CCC(C(c3cccc(F)c3)N(C)C)CC2)cc1OC (stereo not shown)

88
93
97
85
83
73
93
99

Give 5-HT (inhibition of reuptake of serotonin, % inhibition) for each of the items listed below.
1. COc1ccc(S(=O)(=O)N(C)CCOCC(=O)NCC2CCC(C(c3cccc(F)c3)N(C)C)CC2)cc1 (stereo not shown)
2. Cc1cc(C)c(S(=O)(=O)N2CCC(OCC(=O)NC3CCC(C(c4ccc(F)cc4)N(C)C)CC3)C2)c(C)c1 (stereo not shown)
3. CN(C)C(c1ccc(F)cc1)C1CCC(NC(=O)COC2CCN(S(=O)(=O)c3ccc(F)cc3)C2)CC1 (stereo not shown)
4. CN(C)C(c1ccc(F)cc1)C1CCC(CCNC(=O)COCC2CCCCN2S(=O)(=O)c2ccc(Cl)c(Cl)c2)CC1 (stereo not shown)
5. Cc1ccc(S(=O)(=O)N(C)CCOCC(=O)NCC2CCC(C(c3ccc(Cl)cc3)N(C)C)CC2)cc1 (stereo not shown)
6. CN(C)C(c1ccc(Cl)cc1)C1CCC(CNC(=O)COCCN(C)S(=O)(=O)c2c(Cl)cc(Cl)cc2Cl)CC1 (stereo not shown)
7. COc1cc(C)c(S(=O)(=O)N2CCN(CCOCC(=O)NC3CCC(C(c4ccc(F)cc4)N(C)C)CC3)CC2)c(C)c1C (stereo not shown)

[81, 88, 79, 96, 91, 91, 92]

Each compound below has a recorded value; state its 5-HT (inhibition of reuptake of serotonin, % inhibition).
1. COc1ccc(S(=O)(=O)N2CCCC2COCC(=O)NCCC2CCC(C(c3ccc(Cl)cc3)N(C)C)CC2)cc1 (stereo not shown)
2. COc1ccc(S(=O)(=O)N2CCCCC2CCOCC(=O)NCC2CCC(C(CCc3ccccc3)N(C)C)CC2)cc1 (stereo not shown)

95
85
